# experimentalTarget: T1, P8A
# T1 chain: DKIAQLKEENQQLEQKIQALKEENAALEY
# protocolDetails: two-hybrid library CCNG1;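 also: natural log of median RNA to DNA barcode read ratio; higher means stronger binding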
# key: entry, value: interaction score

Example results:
{"columns": ["binder", "recordedValue"],
 "data": [
  ["DKIAQLKEENQQLEQKIQALKEENAALEY [P8A]", -1.27],
  ["DKNAQLEQKIAELEQKIAELEWENAQLKQ [4H3364-bA]", -0.26],
  ["DKIAQLKEKNAALKEKNQQLKEKIQALKY [P2A]", -0.85],
  ["DKNAQLKEENAALEEKIQQLKEKIQALKY [P10A]", -0.507]
]}

Sample DKIAQLKQKIQALKQENQQLEEENAALEY [P4A] — what was its interaction score?
-1.42

Sample DENQALEQEIAQLEQEIAALEQKNAQLKY [P11A] — what was its interaction score?
-0.16

Sample DEIQQLEEEIAQLEQKNAALKEKNQALKY [P3A] — what was its interaction score?
-0.435

Sample DKNAQLKEKIAALKEKIQQLKEENQALEY [P12A] — what was its interaction score?
-1.25
